# System: TYK2 pseudokinase (JH2); IL-23-stimulated HEK-Blue IL-23 cells
# Test Summary: HEK-Blue IL-23 reporter assay (STAT3-inducible SEAP) for profiling TYK2 pseudokinase (JH2) inhibition
# Type: cell-based
# Experimental Conditions: 10 ng/mL human recombinant IL-23, SEAP readout, read-out: IL23 (TYK2 inhibitory activity, IC50)
pIC50: −log10 of the molar value.
Quantity: pIC50

Examples from the recorded data:
1) [2H]C([2H])([2H])NC(=O)c1cnc(Nc2cc(C)nc(C)n2)cc1Nc1cccc2c1N(C)Cc1cn(C)nc1-2 : > 7.52
2) [2H]C([2H])([2H])NC(=O)c1nnc(NC(=O)NC)cc1Nc1nccc2c1N(C)[C@H](C)c1cn(C)nc1-2 (single isomer, unassigned) : 6.52 to 7.52
3) [2H]C([2H])([2H])NC(=O)c1nnc(NC(=O)C2CC2)cc1Nc1nccc2c1N(C)[C@H](C)c1cc(C)nn1-2 : > 7.52

Input: # lookup: pIC50 of `Cn1cc2c(n1)-c1cccc(Nc3cc(NC(=O)C4CC4)nc4[nH]n(C)c(=O)c34)c1OC2`
Output: 6.00 to 6.52

Input: Please look up its pIC50: `[2H]C([2H])([2H])NC(=O)c1cnc(Nc2cc(C)nc(C)n2)cc1Nc1cccc2c1OCc1cn(C)nc1-2`
Output: > 7.52

Input: I'd like to know its pIC50. The compound in question is `[2H]C([2H])([2H])NC(=O)c1cnc(NC(=O)C2CC2)cc1Nc1cccc2c1N(C)C([2H])([2H])c1cc(C)nn1-2`
Output: > 7.52
